Test system: human red blood cells
Assay: Hemolytic ability (Example 3)
Type: cell-based
Details: concentration that causes 50% hemolysis
Residues, ends and D or L forms follow the SMILES beside them.
experimental-endpoint: HL50

CC[C@H](C)[C@H](NC(=O)[C@H](CCCNC(=N)N)NC(=O)[C@H](CCCNC(=N)N)NC(=O)[C@H](CC(C)C)NC(=O)[C@H](CCCNC(=N)N)NC(=O)[C@H](Cc1c[nH]c2ccccc12)NC(=O)[C@@H](N)Cc1c[nH]c2ccccc12)C(=O)N[C@@H](Cc1c[nH]c2ccccc12)C(N)=O [Peptide W3R, WWRLRRIW] (H-WWRLRRIW-NH2; N-terminus assumed)	>200 µM
CC[C@H](C)[C@H](NC(=O)[C@H](CCCNC(=N)N)NC(=O)[C@H](CCCNC(=N)N)NC(=O)[C@H](CC(C)C)NC(=O)[C@H](Cc1c[nH]c2ccccc12)NC(=O)[C@H](CCCNC(=N)N)NC(=O)[C@@H](N)Cc1c[nH]c2ccccc12)C(=O)N[C@@H](Cc1c[nH]c2ccccc12)C(N)=O [Peptide W2R, WRWLRRIW] (H-WRWLRRIW-NH2; N-terminus assumed)	100 µM
CC[C@H](C)[C@H](NC(=O)[C@H](CCCNC(=N)N)NC(=O)[C@H](CCCNC(=N)N)NC(=O)[C@H](CC(C)C)NC(=O)[C@H](Cc1c[nH]c2ccccc12)NC(=O)[C@H](Cc1c[nH]c2ccccc12)NC(=O)[C@@H](N)Cc1c[nH]c2ccccc12)C(=O)N[C@@H](CCCNC(=N)N)C(N)=O [Peptide W8R, WWWLRRIR] (H-WWWLRRIR-NH2; N-terminus assumed)	>200 µM

Source of measurements: patent US20190048052A1
